# target.or.system: thromboxane synthetase from rabbit platelet microsomes (Oryctolagus cuniculus, UniProt G1TAZ9)
# Sequence (G1TAZ9 1-530): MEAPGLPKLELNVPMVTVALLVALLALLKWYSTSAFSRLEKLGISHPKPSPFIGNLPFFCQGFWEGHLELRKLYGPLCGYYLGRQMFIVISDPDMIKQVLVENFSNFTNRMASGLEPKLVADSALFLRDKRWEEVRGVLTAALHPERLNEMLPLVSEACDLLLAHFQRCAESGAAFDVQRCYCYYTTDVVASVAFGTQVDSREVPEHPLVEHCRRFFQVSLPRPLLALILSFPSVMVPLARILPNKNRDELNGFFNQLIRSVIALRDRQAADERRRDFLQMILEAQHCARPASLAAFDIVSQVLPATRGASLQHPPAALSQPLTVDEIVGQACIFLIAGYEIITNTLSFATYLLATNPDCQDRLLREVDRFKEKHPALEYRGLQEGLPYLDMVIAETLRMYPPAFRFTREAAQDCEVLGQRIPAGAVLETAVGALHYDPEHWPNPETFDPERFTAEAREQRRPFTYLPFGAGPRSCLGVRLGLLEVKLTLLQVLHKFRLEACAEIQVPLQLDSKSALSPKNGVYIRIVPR
Counter-ions that a name gives are not always drawn.
hey, just use 1.0 if measured IC50 is less than 90 nM, otherwise 0.0

compound: O=C(O)/C=C\CCCCCn1ccnc1 [hydrochloride]
class.name: 0.0
--
compound: CCOC(=O)C(C)(C)CCCCCCn1ccnc1
class.name: 1.0
--
compound: CCOC(=O)C(C)CCCCCCn1ccnc1 (racemic) [1-[(7RS)-7-ethoxycarbonyloctyl]imidazole]
class.name: 0.0
--
compound: O=C(O)CCCC/C=C\Cn1ccnc1 [hydrochloride]
class.name: 1.0
--
compound: CC(CCCCCn1ccnc1)CC(=O)O.Cl (racemic) [hydrochloride]
class.name: 0.0
--
compound: CC(C)(CCCCCCC(=O)O)n1ccnc1.Cl [hydrochloride]
class.name: 1.0
